# systemTested: Histone deacetylase 5 (Homo sapiens)
# Sequence (Q9UQL6 whole entry, the tested form may be a part): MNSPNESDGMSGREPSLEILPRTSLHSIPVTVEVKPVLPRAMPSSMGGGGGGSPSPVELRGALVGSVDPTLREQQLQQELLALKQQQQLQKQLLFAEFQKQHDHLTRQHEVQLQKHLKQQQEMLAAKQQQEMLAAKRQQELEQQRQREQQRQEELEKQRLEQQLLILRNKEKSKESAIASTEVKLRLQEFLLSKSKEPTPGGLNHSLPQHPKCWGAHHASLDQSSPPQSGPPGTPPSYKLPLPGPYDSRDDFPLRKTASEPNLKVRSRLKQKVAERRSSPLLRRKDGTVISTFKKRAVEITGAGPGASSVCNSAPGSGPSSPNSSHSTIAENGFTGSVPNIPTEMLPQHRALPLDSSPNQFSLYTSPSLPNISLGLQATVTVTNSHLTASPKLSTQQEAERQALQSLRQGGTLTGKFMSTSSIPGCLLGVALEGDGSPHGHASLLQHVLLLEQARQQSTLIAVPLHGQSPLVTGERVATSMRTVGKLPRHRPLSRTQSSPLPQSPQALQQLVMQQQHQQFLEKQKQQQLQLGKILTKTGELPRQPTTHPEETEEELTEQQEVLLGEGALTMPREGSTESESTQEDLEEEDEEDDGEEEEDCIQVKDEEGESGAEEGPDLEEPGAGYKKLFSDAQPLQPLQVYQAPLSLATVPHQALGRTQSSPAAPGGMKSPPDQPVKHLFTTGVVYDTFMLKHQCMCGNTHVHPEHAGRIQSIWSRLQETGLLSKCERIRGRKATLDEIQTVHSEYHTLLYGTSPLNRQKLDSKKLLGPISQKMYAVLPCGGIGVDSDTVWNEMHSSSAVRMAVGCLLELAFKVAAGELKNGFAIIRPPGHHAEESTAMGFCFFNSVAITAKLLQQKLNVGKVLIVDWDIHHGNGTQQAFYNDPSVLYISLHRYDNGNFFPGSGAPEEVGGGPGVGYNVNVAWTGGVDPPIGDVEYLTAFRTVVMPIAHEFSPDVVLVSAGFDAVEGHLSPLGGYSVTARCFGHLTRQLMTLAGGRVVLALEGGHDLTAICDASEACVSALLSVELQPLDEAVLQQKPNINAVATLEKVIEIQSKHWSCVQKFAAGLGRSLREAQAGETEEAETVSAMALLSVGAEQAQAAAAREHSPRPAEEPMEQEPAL
# test: Inhibition of human full length recombinant HDAC5 using p53 (379 to 382 residues) Ac-LGK(TFA)-AMC as substrate preincubated for 5 to 10 mins followed by substrate addition and measured after 2 hrs by fluorescence method
resultType: pIC50
// returns pIC50 (minus log10 of molar concentration), number only

input: For O=C(NO)c1ccc(CN2CCCc3cc(Cl)ccc32)cc1 , what is its reported pIC50?
output: 5.40

* * *

# systemTested: Polyamine deacetylase HDAC10 (Homo sapiens, UniProt Q969S8)
# test: Inhibition of HDAC10 (unknown origin) using p53 residues (379 to 382)(RHKK(Ac)-AMC) as substrate by fluorescent method
resultType: IC50

input: Return IC50 measured with Polyamine deacetylase HDAC10 (Homo sapiens, UniProt Q969S8) given this compound: Cn1cc(-c2ccc(S(=O)(=O)n3ccc(/C=C/C(=O)Nc4ccccc4N)c3)cc2)cn1 [DOMATINOSTAT]
output: > 10 µM

* * *

# systemTested: UniProt Q9UQL6
# test: Inhibition of human HDAC5 using acetyl-lysine tripeptide as substrate preincubated for 10 mins followed by substrate addition and shaken for 5 secs and measured over 30 mins
pIC50: −log10 of the molar value.
resultType: pIC50

input: Need pIC50 of Nc1ccc(-c2cccs2)cc1NC(=O)c1ccc2nc(N3CCNCC3)ccc2c1 , thanks.
output: < 4.70

* * *

# systemTested: Histone deacetylase 1 (Homo sapiens, UniProt Q13547)
# Sequence (Q13547 whole entry): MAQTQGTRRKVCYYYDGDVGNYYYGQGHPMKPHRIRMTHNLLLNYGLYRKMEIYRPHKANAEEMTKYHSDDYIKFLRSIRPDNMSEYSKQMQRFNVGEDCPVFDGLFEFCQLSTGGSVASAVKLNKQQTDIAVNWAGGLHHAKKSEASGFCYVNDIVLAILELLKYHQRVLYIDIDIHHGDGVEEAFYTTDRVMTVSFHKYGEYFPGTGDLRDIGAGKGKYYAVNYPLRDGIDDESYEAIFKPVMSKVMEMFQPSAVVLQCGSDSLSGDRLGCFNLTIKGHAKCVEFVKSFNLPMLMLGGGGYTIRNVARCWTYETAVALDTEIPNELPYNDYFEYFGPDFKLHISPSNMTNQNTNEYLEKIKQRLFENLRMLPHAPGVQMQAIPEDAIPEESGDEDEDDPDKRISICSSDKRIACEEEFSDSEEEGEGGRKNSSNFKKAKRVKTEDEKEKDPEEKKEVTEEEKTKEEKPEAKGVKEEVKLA
# test: Inhibition of human full length C-terminal Flag tagged HDAC1 expressed in HEK293T cells using H3K9-myristoyl peptide as substrate by HPLC method
resultType: IC50

input: Fill in the recorded IC50 for this compound, with Histone deacetylase 1 (Homo sapiens, UniProt Q13547) as test system: CCCCCCCCCCCCCCCCNNC(=O)c1cccs1
output: > 10 µM

* * *

# systemTested: Histone deacetylase 3/Nuclear receptor corepressor 2 (HDAC3/NCoR2) (Homo sapiens)
# Sequence (O15379 whole entry, the tested form may be a part): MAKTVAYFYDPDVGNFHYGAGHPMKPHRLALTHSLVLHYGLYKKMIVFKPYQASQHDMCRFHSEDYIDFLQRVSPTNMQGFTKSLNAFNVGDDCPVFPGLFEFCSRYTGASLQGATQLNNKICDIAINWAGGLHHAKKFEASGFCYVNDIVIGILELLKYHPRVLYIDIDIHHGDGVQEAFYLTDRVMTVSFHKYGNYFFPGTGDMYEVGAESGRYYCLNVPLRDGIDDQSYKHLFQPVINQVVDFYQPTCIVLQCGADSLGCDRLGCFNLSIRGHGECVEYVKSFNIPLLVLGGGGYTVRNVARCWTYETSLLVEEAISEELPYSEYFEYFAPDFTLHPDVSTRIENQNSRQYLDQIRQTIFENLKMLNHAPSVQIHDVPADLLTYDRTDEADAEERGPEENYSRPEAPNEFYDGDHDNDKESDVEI
# Sequence (Q9Y618 whole entry, further chain, the tested form may be a part): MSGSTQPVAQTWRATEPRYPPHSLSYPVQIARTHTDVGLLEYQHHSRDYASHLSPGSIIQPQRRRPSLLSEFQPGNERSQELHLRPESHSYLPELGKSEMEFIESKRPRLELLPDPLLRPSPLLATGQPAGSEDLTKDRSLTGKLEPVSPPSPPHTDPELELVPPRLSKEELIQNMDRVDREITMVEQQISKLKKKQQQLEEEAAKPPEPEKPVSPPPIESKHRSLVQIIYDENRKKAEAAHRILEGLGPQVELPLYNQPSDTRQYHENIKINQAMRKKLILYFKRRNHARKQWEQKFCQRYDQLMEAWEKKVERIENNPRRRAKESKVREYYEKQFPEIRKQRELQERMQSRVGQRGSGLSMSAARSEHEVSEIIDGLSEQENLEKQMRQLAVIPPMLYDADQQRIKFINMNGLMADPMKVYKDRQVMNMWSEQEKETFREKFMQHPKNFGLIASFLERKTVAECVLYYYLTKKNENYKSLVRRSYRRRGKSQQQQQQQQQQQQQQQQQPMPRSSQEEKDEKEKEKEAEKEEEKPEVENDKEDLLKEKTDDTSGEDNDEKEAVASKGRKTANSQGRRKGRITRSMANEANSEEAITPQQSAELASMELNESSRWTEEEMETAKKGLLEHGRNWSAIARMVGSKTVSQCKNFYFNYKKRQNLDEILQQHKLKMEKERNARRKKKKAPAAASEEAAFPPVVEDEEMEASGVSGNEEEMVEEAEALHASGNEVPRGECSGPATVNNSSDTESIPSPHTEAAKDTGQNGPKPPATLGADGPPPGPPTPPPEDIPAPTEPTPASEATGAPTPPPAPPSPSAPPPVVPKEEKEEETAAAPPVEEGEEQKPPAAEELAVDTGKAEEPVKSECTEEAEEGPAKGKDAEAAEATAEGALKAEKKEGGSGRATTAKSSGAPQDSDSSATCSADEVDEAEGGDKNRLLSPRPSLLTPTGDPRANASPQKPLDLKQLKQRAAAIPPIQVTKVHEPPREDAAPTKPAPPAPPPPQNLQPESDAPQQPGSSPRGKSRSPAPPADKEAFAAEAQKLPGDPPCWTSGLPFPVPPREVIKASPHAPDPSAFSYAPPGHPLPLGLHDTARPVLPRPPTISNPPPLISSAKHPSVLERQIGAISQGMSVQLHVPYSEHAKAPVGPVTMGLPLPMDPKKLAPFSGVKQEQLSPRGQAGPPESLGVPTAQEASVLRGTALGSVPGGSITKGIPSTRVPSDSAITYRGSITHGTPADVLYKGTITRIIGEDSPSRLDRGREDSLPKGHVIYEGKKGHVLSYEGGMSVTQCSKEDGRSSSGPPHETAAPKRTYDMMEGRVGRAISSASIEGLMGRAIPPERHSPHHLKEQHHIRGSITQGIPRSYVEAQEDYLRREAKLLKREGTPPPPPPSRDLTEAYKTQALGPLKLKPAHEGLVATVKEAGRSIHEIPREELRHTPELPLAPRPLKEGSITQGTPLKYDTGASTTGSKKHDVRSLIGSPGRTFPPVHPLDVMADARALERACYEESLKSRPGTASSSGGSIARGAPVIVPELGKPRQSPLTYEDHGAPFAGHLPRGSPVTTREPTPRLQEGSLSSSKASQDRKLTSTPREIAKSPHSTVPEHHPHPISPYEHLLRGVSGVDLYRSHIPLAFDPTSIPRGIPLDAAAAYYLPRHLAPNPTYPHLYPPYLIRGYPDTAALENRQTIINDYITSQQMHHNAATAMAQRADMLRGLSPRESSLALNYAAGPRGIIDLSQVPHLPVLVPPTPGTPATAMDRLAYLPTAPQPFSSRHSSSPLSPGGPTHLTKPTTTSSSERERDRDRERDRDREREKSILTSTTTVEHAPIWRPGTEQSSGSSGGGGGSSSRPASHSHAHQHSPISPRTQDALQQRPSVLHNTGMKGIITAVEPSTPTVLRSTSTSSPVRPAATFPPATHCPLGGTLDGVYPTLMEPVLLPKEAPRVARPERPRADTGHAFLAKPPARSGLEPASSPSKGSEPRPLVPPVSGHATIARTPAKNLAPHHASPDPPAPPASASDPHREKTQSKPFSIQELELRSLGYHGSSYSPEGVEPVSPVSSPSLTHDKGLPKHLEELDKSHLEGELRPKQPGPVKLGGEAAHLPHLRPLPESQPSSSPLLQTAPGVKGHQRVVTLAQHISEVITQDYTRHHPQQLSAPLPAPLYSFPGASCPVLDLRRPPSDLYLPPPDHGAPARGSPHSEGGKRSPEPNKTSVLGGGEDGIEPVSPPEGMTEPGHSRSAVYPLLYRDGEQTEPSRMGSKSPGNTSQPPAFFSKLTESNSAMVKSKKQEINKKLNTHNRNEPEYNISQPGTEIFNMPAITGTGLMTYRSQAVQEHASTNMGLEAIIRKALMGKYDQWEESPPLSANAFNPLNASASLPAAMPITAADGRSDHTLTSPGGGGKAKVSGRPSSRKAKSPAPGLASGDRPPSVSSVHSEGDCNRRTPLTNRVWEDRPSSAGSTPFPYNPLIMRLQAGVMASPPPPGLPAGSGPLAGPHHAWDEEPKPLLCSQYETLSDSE
# test: Inhibition of human full length recombinant HDAC3/ NcoR2 using p53 (379 to 382 residues) (RHKK(Ac)AMC) as substrate preincubated for 5 to 10 mins followed by substrate addition and measured after 2 hrs by fluorescence method
# Format: protein-complex assay
resultType: pIC50
Keep it numeric: pIC50 is minus log10 of the concentration in mol/L.

input: API: value(readout=pIC50, system=Histone deacetylase 3/Nuclear receptor corepressor 2 (HDAC3/NCoR2) (Homo sapiens)) for record O=C(NO)c1ccc(CN2CCCc3cc(Cl)ccc32)cc1
output: 4.52

* * *

# systemTested: Protein deacetylase HDAC6 (Homo sapiens, UniProt Q9UBN7)
# Sequence (Q9UBN7 whole entry): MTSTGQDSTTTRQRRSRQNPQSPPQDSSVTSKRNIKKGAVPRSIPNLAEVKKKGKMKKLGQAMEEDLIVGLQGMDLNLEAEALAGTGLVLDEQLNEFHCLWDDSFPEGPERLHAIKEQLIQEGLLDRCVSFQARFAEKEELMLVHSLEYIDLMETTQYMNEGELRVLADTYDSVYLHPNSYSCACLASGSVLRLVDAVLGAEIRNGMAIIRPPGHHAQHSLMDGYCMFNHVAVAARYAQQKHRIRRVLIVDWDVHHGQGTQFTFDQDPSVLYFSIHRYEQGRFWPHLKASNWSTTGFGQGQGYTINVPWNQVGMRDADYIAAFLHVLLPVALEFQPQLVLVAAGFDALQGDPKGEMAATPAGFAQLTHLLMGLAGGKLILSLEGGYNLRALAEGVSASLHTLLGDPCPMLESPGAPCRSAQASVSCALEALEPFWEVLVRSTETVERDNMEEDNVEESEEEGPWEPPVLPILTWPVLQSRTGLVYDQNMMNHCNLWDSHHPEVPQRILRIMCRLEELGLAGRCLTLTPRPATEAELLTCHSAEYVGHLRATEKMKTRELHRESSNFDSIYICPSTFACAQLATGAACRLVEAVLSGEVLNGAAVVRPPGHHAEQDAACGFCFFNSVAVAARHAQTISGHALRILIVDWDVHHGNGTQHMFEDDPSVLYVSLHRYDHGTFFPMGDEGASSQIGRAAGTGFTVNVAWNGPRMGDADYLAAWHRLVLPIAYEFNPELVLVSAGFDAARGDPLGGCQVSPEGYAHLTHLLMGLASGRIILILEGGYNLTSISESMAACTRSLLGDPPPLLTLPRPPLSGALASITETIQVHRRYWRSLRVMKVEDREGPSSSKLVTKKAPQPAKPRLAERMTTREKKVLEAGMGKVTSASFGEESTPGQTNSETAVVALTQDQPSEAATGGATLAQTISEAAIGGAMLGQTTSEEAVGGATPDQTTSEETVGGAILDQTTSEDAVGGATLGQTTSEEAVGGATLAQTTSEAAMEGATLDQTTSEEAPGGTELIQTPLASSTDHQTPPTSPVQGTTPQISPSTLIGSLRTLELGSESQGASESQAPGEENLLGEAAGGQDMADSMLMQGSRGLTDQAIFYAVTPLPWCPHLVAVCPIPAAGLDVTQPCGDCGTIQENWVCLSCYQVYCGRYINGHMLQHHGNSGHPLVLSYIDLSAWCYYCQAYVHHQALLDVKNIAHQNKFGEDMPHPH
# test: Inhibition of human HDAC6 using Boc-Lys(Ac)-AMC as substrate preincubated for 30 mins followed by substrate addition and measured after 60 mins by […]
resultType: IC50 (µM)
Give a bare numeral; the unit µM is implied.

input: Recorded IC50 for N=C1Sc2ccccc2C2=NCCCN12 with Protein deacetylase HDAC6 (Homo sapiens, UniProt Q9UBN7), please?
output: 7

* * *

# systemTested: Histone deacetylase 4 (Homo sapiens)
# test: Inhibition of human HDAC4 expressed in baculovirus infected sf9 cells using Boc-L-Lys-MCA as substrate preincubated for 15 mins followed by substrate addition and measured after 60 mins by fluorescence method
pIC50: −log10 of the molar value.
resultType: pIC50

input: Returns the measured pIC50 for the input compound. Input: CCN(CC)Cc1ccc2cc(COC(=O)Nc3ccc(C(=O)NO)cc3)ccc2c1
output: < 6.00

* * *

# test: Inhibition of LSD1-HDAC1-CoREST (unknown origin) using Boc-(Ac)Lys-AMC as substrate incubated for 20 mins by fluorescence-based assay
# Parameters: species or system Homo sapiens
resultType: IC50

input: Give the measured IC50 of Cc1ncsc1-c1ccc(CNC(=O)[C@@H]2C[C@@H](O)CN2C(=O)[C@@H](NC(=O)CCCCCCCCCCC(=O)Nc2ccc(C(=O)Nc3cc(-c4ccccc4)ccc3N)cc2)C(C)(C)C)cc1 .
output: 17 µM

* * *

# systemTested: Polyamine deacetylase HDAC10 (Homo sapiens, UniProt Q969S8)
# Sequence (Q969S8 whole entry): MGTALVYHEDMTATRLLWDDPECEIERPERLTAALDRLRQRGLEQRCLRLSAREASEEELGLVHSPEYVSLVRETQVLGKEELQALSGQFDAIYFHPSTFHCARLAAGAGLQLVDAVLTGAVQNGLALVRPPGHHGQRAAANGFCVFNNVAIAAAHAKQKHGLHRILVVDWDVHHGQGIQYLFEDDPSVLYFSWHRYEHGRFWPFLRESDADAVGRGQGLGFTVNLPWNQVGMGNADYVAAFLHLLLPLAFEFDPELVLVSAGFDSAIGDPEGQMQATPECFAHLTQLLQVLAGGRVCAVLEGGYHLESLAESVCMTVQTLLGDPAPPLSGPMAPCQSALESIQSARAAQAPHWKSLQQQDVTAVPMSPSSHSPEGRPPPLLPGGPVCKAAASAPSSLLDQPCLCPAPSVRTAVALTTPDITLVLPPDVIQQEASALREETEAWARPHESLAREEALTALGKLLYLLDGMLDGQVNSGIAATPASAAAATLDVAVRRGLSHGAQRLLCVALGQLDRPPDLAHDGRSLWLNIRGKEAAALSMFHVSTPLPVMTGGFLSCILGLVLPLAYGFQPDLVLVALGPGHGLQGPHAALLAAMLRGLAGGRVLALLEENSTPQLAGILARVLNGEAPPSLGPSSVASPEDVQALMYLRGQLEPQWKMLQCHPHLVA
# test: Inhibition of human full length recombinant HDAC10 using p53 (379 to 382 residues) (RHKK(Ac)AMC) as substrate preincubated for 5 to 10 mins followed by substrate addition and measured after 2 hrs by fluorescence method
resultType: pIC50
By convention, pIC50 is the negative base-10 log of a molar concentration.

input: May I ask what pIC50 has been recorded for O=C(NO)c1ccc(CN2CCCc3cc(Cl)ccc32)cc1 ?
output: 4.59

* * *

# systemTested: Histone deacetylase 2 (Homo sapiens, UniProt Q92769)
resultType: Ki (nM)
Provide the reading as a plain figure in nM.

input: # get_value(readout='Ki', item= C/C=C1\NC(=O)[C@@H](C)NC(=O)[C@@H](C(C)C)NC(=O)C[C@@H](CCC)OC(=O)[C@H](C(C)C)NC1=O )
output: 370

* * *

# systemTested: UniProt Q96DB2
# Sequence (Q96DB2 whole entry): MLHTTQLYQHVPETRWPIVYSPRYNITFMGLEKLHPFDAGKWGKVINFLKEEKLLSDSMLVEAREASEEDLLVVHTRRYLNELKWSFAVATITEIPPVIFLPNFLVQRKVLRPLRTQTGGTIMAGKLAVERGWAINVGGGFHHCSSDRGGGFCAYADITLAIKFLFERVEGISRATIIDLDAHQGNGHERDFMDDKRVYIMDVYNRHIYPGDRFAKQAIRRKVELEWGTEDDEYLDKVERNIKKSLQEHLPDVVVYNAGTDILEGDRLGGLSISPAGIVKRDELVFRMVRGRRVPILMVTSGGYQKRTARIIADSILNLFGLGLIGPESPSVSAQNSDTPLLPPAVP
# test: Inhibition of human C-terminal Flag-tagged HDAC11 expressed in sf9 cells using Boc-Lys(Ac)-AMC as substrate preincubated for 10 mins followed by substrate addition by fluorometry
resultType: pIC50
// pIC50 here means minus log10 of the molar concentration (mol/L)

input: Value lookup for pIC50; key = Nc1ccccc1NC(=O)c1ccc(CNc2nccc(-c3cccnc3)n2)cc1 [MOCETINOSTAT]
output: 6.22

Just for reference, ChEMBL document CHEMBL4765362 is where these values come from.
